B1: SMG5 (parent)
chain: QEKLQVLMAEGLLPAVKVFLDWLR

Variants of: B1
Experiment Summary: protein stability index of a GFP-peptide fusion (GPS, HEK-293T) (PSI 1-6); higher = more stable;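 note: lentivirally expressed fusions sorted by FACS into six bins by GFP to DsRed ratio, PSI derived from sequencing read proportions per bin multiplied by bin number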
Particulars: c terminus: a fixed tail appended
In this section we review reported protein stability index values for a set of variants.
Number only, please.

INSERT INTO measurements (mutation_list, measured_result) VALUES
  ('Q1A', 2.23);

Return reported protein stability index; argument: `Q5L`
2.5

Recorded protein stability index of `Q1M` , please.
2.37

May I ask what protein stability index has been recorded for `L23N` ?
2.58

Entry `P14L` : reported protein stability index = ?
1.67

Form field: reported protein stability index of `V6D`
1.96

Recorded protein stability index of `L13T` , please.
1.29

Quick one: protein stability index of `E10I` ?
1.4

Can you look up the measured protein stability index of `G11R` for me?
2.04

So what does the record say about protein stability index for `L23V` ?
1.67

I'd like to know its protein stability index. The variant in question is `V6A`
1.82

I would be grateful if you could share the reported protein stability index for `Q1H` .
1.45

Which measured protein stability index value corresponds to `L12M` ?
1.22

Any idea what its protein stability index is? The variant is `Q5H`
1.58

Any idea what its protein stability index is? The variant is `W22V`
1.62

Returns the measured protein stability index for the input variant. Input: `M8R`
3.01

# input variant: `P14W` ; wanted: its protein stability index
2.46

I have this variant here, `Q1D` , and I need its recorded protein stability index.
2.79

Quick check: protein stability index of `V6C` ?
2.14

Requested read-out: protein stability index. Entry: `Q5Y`
1.8

I would be grateful if you could share the reported protein stability index for `Q5K` .
2.45

What value of protein stability index has been recorded for this entry: `Q1L`
3.5
